# measured.target: T1, cynomolgus CD3 on cynomolgus T cells (cynomolgus, UniProt Q95LI5 22-198; Q95LI8 22-171)
# T1 construct: whole, on cells; also called Cyno T-cells; monkey T-cells
# T1 sequence (Q95LI5 22-198, form in doubt, chain 1 of 2): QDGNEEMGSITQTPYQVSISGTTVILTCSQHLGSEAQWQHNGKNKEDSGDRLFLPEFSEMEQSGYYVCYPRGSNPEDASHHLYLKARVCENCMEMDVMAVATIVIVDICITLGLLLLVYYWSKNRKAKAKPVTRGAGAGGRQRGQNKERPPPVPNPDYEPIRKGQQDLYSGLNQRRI
# T1 sequence (Q95LI8 22-171, form in doubt, chain 2 of 2): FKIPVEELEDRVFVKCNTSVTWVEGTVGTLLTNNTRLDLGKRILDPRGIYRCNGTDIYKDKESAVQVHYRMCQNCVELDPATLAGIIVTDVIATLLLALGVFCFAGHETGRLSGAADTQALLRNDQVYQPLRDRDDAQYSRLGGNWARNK
# experiment.summary: FACS on cynomolgus T cells
readout.label: EC50
Value and unit, in that order.

BSPSMA/CD3-003 (bispecific antibody, IgG4, V domains shown, modified (chimeric) IgG4 Fc domain; also called PSMA-VH-11810 x CD3-VH-G) VH 1: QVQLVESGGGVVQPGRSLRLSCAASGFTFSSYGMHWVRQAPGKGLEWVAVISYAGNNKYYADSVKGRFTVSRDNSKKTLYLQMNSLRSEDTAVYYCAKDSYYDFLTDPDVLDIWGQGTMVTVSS VH 2: EVQLVESGGGLVQPGRSLRLSCAASGFTFDDYSMHWVRQAPGKGLEWVSGISWNSGSKGYADSVKGRFTISRDNAKNSLYLQMNSLRAEDTALYYCAKYGSGYGKFYHYGLDVWGQGTTVTVSS VL: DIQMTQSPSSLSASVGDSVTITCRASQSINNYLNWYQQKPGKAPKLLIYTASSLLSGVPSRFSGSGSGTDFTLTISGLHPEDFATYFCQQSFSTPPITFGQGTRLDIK = 0.0142 µM

From here, focus on the item given below.
So what's the measured EC50 for this one? BSPSMA/CD3-800 (bispecific antibody, IgG4, V domains shown, modified (chimeric) IgG4 Fc domain; also called PSMA-VH-11810 x CD3-VH-G8) VH 1: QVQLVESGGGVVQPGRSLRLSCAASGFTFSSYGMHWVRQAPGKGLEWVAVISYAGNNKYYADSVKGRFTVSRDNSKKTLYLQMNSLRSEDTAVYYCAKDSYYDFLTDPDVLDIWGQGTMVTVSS VH 2: EVQLVESGGGLVQPGRSLRLSCAASGFTFDDYSMHWVRQAPGKGLEWVSGISWNSGSIGYADSVKGRFTISRDNAKNSLYLQMNSLRAEDTALYYCAKYGSGYGKFYHYGLDVWGQGTTVTVSS VL: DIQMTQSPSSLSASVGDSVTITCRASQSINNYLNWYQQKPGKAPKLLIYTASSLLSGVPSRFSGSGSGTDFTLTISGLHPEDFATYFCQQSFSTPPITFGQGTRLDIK
0.0196 µM
